Biological target: Sigma intracellular receptor 2 (Homo sapiens)
Sequence (Q5BJF2 whole entry): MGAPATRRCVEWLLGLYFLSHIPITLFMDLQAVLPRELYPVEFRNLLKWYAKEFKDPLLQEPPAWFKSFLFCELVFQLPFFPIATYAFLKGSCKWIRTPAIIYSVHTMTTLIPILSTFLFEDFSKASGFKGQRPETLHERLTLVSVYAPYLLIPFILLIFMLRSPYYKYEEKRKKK
Experiment: Inhibition of sigma 2 receptor (unknown origin) assessed as binding constant
attribute.measured: pKi
# pKi is unitless: minus log10 of the molar concentration; print number only

molecule: CC(=O)N1C[C@@H]2C[C@H]1C[C@H]2c1ccc(-c2cc(C(=O)O)cc3cc(-c4ccc(C(F)(F)F)cc4)ccc23)cc1
pKi: 5.77

molecule: O=C(O)c1cc(-c2ccc([C@@H]3C[C@H]4CN[C@@H]3C4)cc2)c2ccc(-c3ccc(C(F)(F)F)cc3)cc2c1
pKi: 6.00

Input: Item under review: N[C@@H]1C[C@H](CO)[C@@H](c2ccc(-c3cc(C(=O)O)cc4cc(-c5ccc(C(F)(F)F)cc5)ccc34)cc2)C1 . Reported pKi?
Output: 6.00

Input: Item under review: O=C(O)c1cc(-c2ccc(C3CCNC3)cc2)c2ccc(-c3ccc(C(F)(F)F)cc3)cc2c1 (racemic) . Reported pKi?
Output: 5.92
